Test system: Staphylococcus aureus
Assay: Antibiofilm activity against methicillin-resistant Staphylococcus aureus assessed as inhibition of biofilm formation by measuring residual biofilm growth incubated for overnight at 10-fold dilution by crystal violet staining based microtiter plate assay relative to control
Assay type: functional
Non-standard residues stand in square brackets, D forms with d. Residues, ends and D or L forms follow the SMILES beside them. hArg = N=C(N)NCCCC[C@H](N)C(=O)O; Agb = N=C(N)NCC[C@H](N)C(=O)O; Orn = NCCC[C@H](N)C(=O)O; Dab = NCC[C@H](N)C(=O)O; Dap = NC[C@H](N)C(=O)O
Listed molecules paired with reported residual biofilm growth (% of control)
Entry rule: numbers only, all in %.

Worked examples follow.
molecule: CC[C@H](C)[C@H](NC(=O)[C@H](CCCNC(=N)N)NC(=O)[C@@H](NC(=O)[C@H](C)NC(=O)[C@@H](NC(=O)[C@H](CCN)NC(=O)[C@H](CC(C)C)NC(=O)[C@H](CCCNC(=N)N)NC(=O)[C@@H](N)C(C)C)C(C)C)C(C)C)C(=O)N[C@@H](Cc1c[nH]c2ccccc12)C(=O)N[C@@H](CCCNC(=N)N)C(=O)N[C@@H](CCCNC(=N)N)C(N)=O (H-VRL[Dab]VAVRIWRR-NH2)
residual biofilm growth (% of control) / %: 103.3
//
molecule: CC[C@H](C)[C@H](NC(=O)[C@H](CCCNC(=N)N)NC(=O)[C@@H](NC(=O)[C@H](C)NC(=O)[C@@H](NC(=O)[C@@H](NC(=O)[C@H](CC(C)C)NC(=O)[C@H](CCCNC(=N)N)NC(=O)[C@@H](N)C(C)C)[C@@H](C)CC)C(C)C)C(C)C)C(=O)N[C@@H](Cc1c[nH]c2ccccc12)C(=O)N[C@@H](CCCNC(=N)N)C(=O)N[C@@H](CCCCNC(=N)N)C(N)=O (H-VRLIVAVRIWR[hArg]-NH2)
residual biofilm growth (% of control) / %: 8.5
//
molecule: CC[C@H](C)[C@H](NC(=O)[C@H](CCCNC(=N)N)NC(=O)[C@@H](NC(=O)[C@H](C)NC(=O)[C@@H](NC(=O)[C@@H](NC(=O)[C@H](CC(C)C)NC(=O)[C@H](CN)NC(=O)[C@@H](N)C(C)C)[C@@H](C)CC)C(C)C)C(C)C)C(=O)N[C@@H](Cc1c[nH]c2ccccc12)C(=O)N[C@@H](CCCNC(=N)N)C(=O)N[C@@H](CCCNC(=N)N)C(N)=O (H-V[Dap]LIVAVRIWRR-NH2)
residual biofilm growth (% of control) / %: 19.1
//
molecule: CC[C@H](C)[C@H](NC(=O)[C@H](CCCNC(=N)N)NC(=O)[C@H](CCCN)NC(=O)[C@H](C)NC(=O)[C@@H](NC(=O)[C@@H](NC(=O)[C@H](CC(C)C)NC(=O)[C@H](CCCNC(=N)N)NC(=O)[C@@H](N)C(C)C)[C@@H](C)CC)C(C)C)C(=O)N[C@@H](Cc1c[nH]c2ccccc12)C(=O)N[C@@H](CCCNC(=N)N)C(=O)N[C@@H](CCCNC(=N)N)C(N)=O (H-VRLIVA[Orn]RIWRR-NH2)
residual biofilm growth (% of control) / %: 103
//
molecule: CC[C@H](C)[C@H](NC(=O)[C@H](CC(C)C)NC(=O)[C@H](CCCNC(=N)N)NC(=O)[C@@H](N)C(C)C)C(=O)N[C@H](C(=O)N[C@@H](C)C(=O)N[C@H](C(=O)N[C@@H](CCCNC(=N)N)C(=O)N[C@@H](CCN)C(=O)N[C@@H](Cc1c[nH]c2ccccc12)C(=O)N[C@@H](CCCNC(=N)N)C(=O)N[C@@H](CCCNC(=N)N)C(N)=O)C(C)C)C(C)C (H-VRLIVAVR[Dab]WRR-NH2)
residual biofilm growth (% of control) / %: 102

Entry under test: CC[C@H](C)[C@H](NC(=O)[C@H](CCCNC(=N)N)NC(=O)[C@@H](NC(=O)[C@H](C)NC(=O)[C@@H](NC(=O)[C@@H](NC(=O)[C@H](CC(C)C)NC(=O)[C@H](CCCCNC(=N)N)NC(=O)[C@@H](N)C(C)C)[C@@H](C)CC)C(C)C)C(C)C)C(=O)N[C@@H](Cc1c[nH]c2ccccc12)C(=O)N[C@@H](CCCNC(=N)N)C(=O)N[C@@H](CCCNC(=N)N)C(N)=O (H-V[hArg]LIVAVRIWRR-NH2) . Its residual biofilm growth (% of control) was 38.4

Entry under test: CC[C@H](C)[C@H](NC(=O)[C@H](CC(C)C)NC(=O)[C@H](CCCNC(=N)N)NC(=O)[C@@H](N)C(C)C)C(=O)N[C@H](C(=O)N[C@@H](C)C(=O)N[C@H](C(=O)N[C@@H](CCCNC(=N)N)C(=O)N[C@@H](CCCCNC(=N)N)C(=O)N[C@@H](Cc1c[nH]c2ccccc12)C(=O)N[C@@H](CCCNC(=N)N)C(=O)N[C@@H](CCCNC(=N)N)C(N)=O)C(C)C)C(C)C (H-VRLIVAVR[hArg]WRR-NH2) . Its residual biofilm growth (% of control) was 84.7

Entry under test: CC[C@H](C)[C@H](NC(=O)[C@H](CCCNC(=N)N)NC(=O)[C@@H](NC(=O)[C@H](C)NC(=O)[C@@H](NC(=O)[C@@H](NC(=O)[C@H](CC(C)C)NC(=O)[C@H](CCCNC(=N)N)NC(=O)[C@@H](N)CN)[C@@H](C)CC)C(C)C)C(C)C)C(=O)N[C@@H](Cc1c[nH]c2ccccc12)C(=O)N[C@@H](CCCNC(=N)N)C(=O)N[C@@H](CCCNC(=N)N)C(N)=O (H-[Dap]RLIVAVRIWRR-NH2) . Its residual biofilm growth (% of control) was 8.5

Entry under test: CC[C@H](C)[C@H](NC(=O)[C@H](CCCNC(=N)N)NC(=O)[C@@H](NC(=O)[C@H](C)NC(=O)[C@@H](NC(=O)[C@@H](NC(=O)[C@H](CCCN)NC(=O)[C@H](CCCNC(=N)N)NC(=O)[C@@H](N)C(C)C)[C@@H](C)CC)C(C)C)C(C)C)C(=O)N[C@@H](Cc1c[nH]c2ccccc12)C(=O)N[C@@H](CCCNC(=N)N)C(=O)N[C@@H](CCCNC(=N)N)C(N)=O (H-VR[Orn]IVAVRIWRR-NH2) . Its residual biofilm growth (% of control) was 99.3

Entry under test: CC[C@H](C)[C@H](NC(=O)[C@H](CCCNC(=N)N)NC(=O)[C@@H](NC(=O)[C@H](C)NC(=O)[C@@H](NC(=O)[C@@H](NC(=O)[C@H](CCNC(=N)N)NC(=O)[C@H](CCCNC(=N)N)NC(=O)[C@@H](N)C(C)C)[C@@H](C)CC)C(C)C)C(C)C)C(=O)N[C@@H](Cc1c[nH]c2ccccc12)C(=O)N[C@@H](CCCNC(=N)N)C(=O)N[C@@H](CCCNC(=N)N)C(N)=O (H-VR[Agb]IVAVRIWRR-NH2) . Its residual biofilm growth (% of control) was 99.8
